Tested on: BJ
measurement_protocol: BJ-TERT-LT-ST fibroblast viability loss – cell-based, RAS-independent, luminescence, dose response (AID 1935);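 further: BJ fibroblasts immortalized with TERT plus LT and ST oncogenes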
Assay type: functional
settings: Homo sapiens
Measured EC50 accompanies every entry in the list below.
value_kind: EC50

# record_smiles, reported
data = [
    ("O=C(c1ccc(Br)cc1)c1cc([N+](=O)[O-])ccc1N1CCOCC1", "2.91 µM (inconclusive)"),
    ("COc1ccccc1C(=O)Nc1nc2ccccc2[nH]1", "1.83 µM (inconclusive)"),
    ("O=[N+]([O-])c1c(Nc2cccc(O)c2)cc(Cl)c2nonc12", "4.25 µM (inconclusive)"),
    ("Oc1ccccc1N=Nc1ccccc1O", "3.31 µM (inconclusive)"),
    ("COc1ccc(NC(=O)c2cc([N+](=O)[O-])ccc2O)cc1", "> 150 µM (inconclusive)"),
]
